# Test system: E. coli D22
# procedure_summary: microbe, parasite or virus in culture
# Type: cell-based
# condition_description: Escherichia coli, D22, read-out: MIC E. coli D22
endpoint_label: MIC

A selection of reference data follows.
{"molecule": "O=C(O)c1cccc2c1OB(O)[C@@H](NC(=O)[C@H](NC(=O)N1CCNC1=O)c1ccc(P(=O)(O)O)cc1)C2", "value_measured": "2 to 4 µg/mL"}
{"molecule": "O=C(NC(C(=O)N[C@H]1Cc2cccc(C(=O)O)c2OB1O)c1ccc(P(=O)(O)O)cc1)c1ccccn1 (stereo partly shown)", "value_measured": "8 to 16 µg/mL"}

Supply measured MIC of CCN1CCN(C(=O)NC(C(=O)N[C@H]2Cc3cccc(C(=O)O)c3OB2O)c2cc(P(=O)(O)O)ccc2F)C(=O)C1=O (stereo partly shown) in your reply.
2 to 4 µg/mL

Supply measured MIC of O=C(O)c1cccc2c1OB(O)[C@@H](NC(=O)C(NS(=O)(=O)C1CC1)c1ccc(P(=O)(O)O)cc1)C2 (stereo partly shown) in your reply.
> 128 µg/mL

Supply measured MIC of CC(=O)N1CCC[C@H]1C(=O)NC(C(=O)N[C@H]1Cc2cccc(C(=O)O)c2OB1O)c1ccc(P(=O)(O)O)cc1 (stereo partly shown) in your reply.
> 128 µg/mL

Supply measured MIC of CCC(=O)NC(C(=O)N[C@H]1Cc2cccc(C(=O)O)c2OB1O)c1ccc(P(=O)(O)O)cc1 (stereo partly shown) in your reply.
32 to 64 µg/mL

Supply measured MIC of O=C(O)c1cccc2c1OB(O)[C@@H](NC(=O)[C@@H](NC(=O)c1cnc3n(c1=O)CCS3)c1ccc(P(=O)(O)O)cc1)C2 (single isomer, unassigned) in your reply.
> 128 µg/mL
